Consider the following binders; for each one, report its MFI ratio over secondary antibody.
# target system: T1, Full length human CD98hc on CHO cells (human)
# T1 construct: CHO cells stably overexpressing it; also called CHO-human CD98hc; CHO-huCD98hc
# T1 chain: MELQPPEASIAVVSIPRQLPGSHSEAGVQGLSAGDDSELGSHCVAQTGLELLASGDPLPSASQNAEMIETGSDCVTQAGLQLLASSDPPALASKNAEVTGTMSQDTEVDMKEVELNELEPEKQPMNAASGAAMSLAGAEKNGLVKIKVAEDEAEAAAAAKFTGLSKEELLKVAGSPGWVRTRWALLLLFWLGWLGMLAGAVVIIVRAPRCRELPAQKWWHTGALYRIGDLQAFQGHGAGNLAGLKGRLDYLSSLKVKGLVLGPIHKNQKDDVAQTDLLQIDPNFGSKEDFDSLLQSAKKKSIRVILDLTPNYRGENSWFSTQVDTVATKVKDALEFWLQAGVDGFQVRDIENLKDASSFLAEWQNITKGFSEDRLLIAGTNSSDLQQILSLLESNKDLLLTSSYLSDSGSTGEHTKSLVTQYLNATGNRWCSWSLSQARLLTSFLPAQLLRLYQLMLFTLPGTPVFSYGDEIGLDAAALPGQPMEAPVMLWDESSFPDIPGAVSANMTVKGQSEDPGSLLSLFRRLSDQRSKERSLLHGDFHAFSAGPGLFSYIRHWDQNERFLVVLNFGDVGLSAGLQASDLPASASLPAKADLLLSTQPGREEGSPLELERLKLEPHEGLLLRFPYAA
# protocol details: FACS, hybridoma supernatant
Give the value as a plain number.

Record CD98HC.03.004 (antibody, V domains shown, hybridoma IgG) VH: DVQLQESGPGLVKPSQSLSLTCTVTGYSITNNYAWNWIRRFPGNKLEWMAYISYSGYTSYNPSLKSRISITRDTSKNQFFLQLNSVTTEDTATYYCTGYFYYYGGGSFDYWGQGTTLTVSS VL: QAVVTQESALTTSPGETVTLTCRSSTGAVTTSNFANWVQEKPDHLFTGLIRGSNNRAPGVPARFSGSLIGDKAALTITGARTEDEAIYFCALWYSDHWVFGGGTKLTVL , field MFI ratio over secondary antibody: 34.4

For CD98HC.04.054 (antibody, V domains shown, hybridoma IgG) VH: QVQLQQSAAELARPGASVKMSCETSGYTFTRYTMNWVKQRPGQGLDWIGYINPSSGYAEYNQKFRGKTTLTADKSSSTAYIQLNSLTSEDSAVYYCVRYDGNYVYWGQGTTLTVSS VL: DIVMTQSQKFMSTSFGDRVDITCKASQNVGSAVAWYQQKPGQSPKLLIYSASNRYTGVPDRFTGSGSGTDFTLTINNMQSADLADYFCQQYNFYPLTFGAGTKLDLK the binder record lists MFI ratio over secondary antibody as 52

Value of measured MFI ratio over secondary antibody for the entry CD98HC.04.009 (antibody, V domains shown, hybridoma IgG) VH: QVQLKESGPGLVAPSQSLSITCTVSGFSLTSYGVHWVRQPPGKGLEWLGVIWAGGSTYYNSALMSRLSISKDNAKSQVLLKMSSLQTDDTAMYYCARDNYGGVYLDVWGAGTTVTVSS VL: ENVLTQSPASMSASPGEKVTMTCRASSSVSSSYLHWYQQKSGASPKLWIYSTSNLASGVPARFSGSGSGTSYSLTISSVEAEDAATYYCQQYSGYPLTFGSGTKLEIK : 18.5
